assay details: Cmax in rat at 10 mg/kg, ip
Assay type: ADME, organism-based
Parameters: dose 10 mg/kg, route intraperitoneal
assay setup: in vivo
assay metric: Cmax (nM)

[[record]]
test_smiles = "O=C(Nc1ccccc1)N1CCN(c2nc(-c3ccccc3)ns2)CC1"
assay_metric = "Cmax"
unit_of_measurement = "nM"
measured_number = 1580


====

assay details: Blood-brain barrier coefficient in rat assessed as log of ratio of brain AUC to plasma AUC at 20 mg/kg, ip
Assay type: ADME, organism-based
Parameters: dose 20 mg/kg, route intraperitoneal
assay metric: Kp

[[record]]
test_smiles = "O=C(Nc1ccccc1)N1CCN(c2nc(-c3ccccc3)ns2)CC1"
measured_number = 0.042

